A set of molecules tested on Staphylococcus epidermidis, with measured MIC:
Could you give me the number in µM? Just the number is fine.

Please review the following examples before continuing.
{"columns": ["Molecule", "Target of assay", "MIC (µM)"],
 "data": [
  ["CC[C@H](C)[C@H](NC(=O)[C@H](CCCN=C(N)N)NC(=O)[C@H](Cc1ccccc1)NC(=O)[C@H](CCC(N)=O)NC(=O)[C@@H](N)CCCCN)C(=O)N[C@@H](CCCN=C(N)N)C(=O)N[C@H](C(=O)N[C@@H](CCCN=C(N)N)C(=O)N[C@H](C(=O)N[C@H](C(=O)N[C@@H](CCCN=C(N)N)C(=O)N[C@@H](CCCCN)C(N)=O)[C@@H](C)CC)C(C)C)C(C)C [KQFRIRVRVIRK]", "Staphylococcus epidermidis", 1],
  ["CC[C@H](C)[C@H](NC(=O)[C@@H](NC(=O)[C@H](C)NC(=O)[C@H](Cc1ccccc1)NC(=O)[C@H](CC(C)C)NC(=O)CN)C(C)C)C(=O)N[C@@H](CCCCN)C(=O)N[C@@H](CCCCN)C(=O)N[C@H](C(=O)N[C@@H](C)C(=O)N[C@@H](CO)C(=O)N[C@H](C(=O)N[C@H](C(=O)N[C@@H](CCCCN)C(=O)NCC(=O)N[C@@H](CC(C)C)C(N)=O)[C@@H](C)CC)C(C)C)C(C)C [GLFAVIKKVASVIKGL]", "Staphylococcus epidermidis", 3.65]
]}

// switching to the query molecule
Tell me the measured MIC of CC[C@H](C)[C@H](NC(=O)[C@@H](NC(=O)[C@H](CC(=O)O)NC(=O)[C@H](Cc1ccccc1)NC(=O)[C@H](CC(C)C)NC(=O)CN)C(C)C)C(=O)N[C@@H](C)C(=O)N[C@@H](CCCCN)C(=O)N[C@H](C(=O)N[C@@H](C)C(=O)N[C@@H](CO)C(=O)N[C@H](C(=O)N[C@H](C(=O)N[C@@H](CCCCN)C(=O)N[C@@H](CCCCN)C(=O)N[C@@H](CC(C)C)C(N)=O)[C@@H](C)CC)C(C)C)C(C)C [GLFDVIAKVASVIKKL] , please.
3.53

###

System: Acinetobacter baumannii
Readout type: MIC (µM)
Could you give me the number in µM? Just the number is fine.

Tell me the measured MIC of CC[C@H](C)[C@H](NC(=O)[C@H](Cc1ccc(O)cc1)NC(=O)[C@H](Cc1ccc(O)cc1)NC(=O)[C@H](CO)NC(=O)CNC(=O)CNC(=O)[C@H](CC(N)=O)NC(=O)[C@H](CCCN=C(N)N)NC(=O)[C@H](CC(C)C)NC(=O)[C@@H](N)Cc1ccccc1)C(=O)N[C@H](C(=O)N1CCC[C@H]1C(=O)N[C@@H](C)C(=O)N[C@@H](Cc1ccccc1)C(=O)N[C@@H](CCCN=C(N)N)C(=O)NCC(=O)N[C@@H](CCCCN)C(=O)NCC(=O)O)C(C)C [FLRNGGSYYIVPAFRGKG] , please.
10

###

System: Staphylococcus aureus NCTC 10788
Readout type: MIC (µM)
Could you give me the number in µM? Just the number is fine.

What measured MIC is associated with CC[C@H](C)[C@H](NC(=O)CNC(=O)[C@@H]1CCCN1C(=O)[C@H](CC(C)C)NC(=O)[C@H](C)NC(=O)[C@H](CC(N)=O)NC(=O)[C@H](CCCCN)NC(=O)[C@H](Cc1ccccc1)NC(=O)[C@H](C)NC(=O)[C@H](CO)NC(=O)[C@H](CC(C)C)NC(=O)[C@@H](NC(=O)CN)C(C)C)C(=O)N[C@@H](CCSC)C(=O)N[C@@H](CCCCN)C(=O)N[C@H](C(=O)N[C@H](C(=O)N[C@H](C(N)=O)C(C)C)[C@@H](C)CC)[C@@H](C)CC on Staphylococcus aureus NCTC 10788?
4.28
